src = ChEMBL document CHEMBL4811301

Readings of pKi for the listed compounds
# tested_target: Amine oxidase [flavin-containing] B (Homo sapiens, UniProt P27338)
# Sequence (P27338 whole entry): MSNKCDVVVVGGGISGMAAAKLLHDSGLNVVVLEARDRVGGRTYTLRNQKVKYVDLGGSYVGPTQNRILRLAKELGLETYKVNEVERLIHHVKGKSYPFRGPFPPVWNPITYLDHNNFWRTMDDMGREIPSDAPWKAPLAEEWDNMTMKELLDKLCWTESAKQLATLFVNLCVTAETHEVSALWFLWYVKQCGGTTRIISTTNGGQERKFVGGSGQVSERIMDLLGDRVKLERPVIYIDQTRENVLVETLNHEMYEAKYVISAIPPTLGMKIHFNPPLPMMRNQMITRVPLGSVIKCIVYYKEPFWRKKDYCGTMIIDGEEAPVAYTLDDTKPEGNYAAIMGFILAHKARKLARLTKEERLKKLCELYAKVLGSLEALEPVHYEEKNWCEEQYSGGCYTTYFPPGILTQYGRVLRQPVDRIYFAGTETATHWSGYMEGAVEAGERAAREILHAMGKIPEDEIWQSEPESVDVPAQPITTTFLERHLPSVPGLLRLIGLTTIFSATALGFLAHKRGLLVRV
# test_description: Mixed type inhibition of human recombinant MAO-B by Lineweaver-Burk plot analysis
In simple prose, pKi is minus the logarithm base ten of a concentration in moles per litre.

// pKi value for COc1ccc2c(=O)c(/C=C/c3ccc(Cl)cc3)coc2c1 : 8.82

Moving on to another compound below.
The reported value for O=c1c(/C=C/c2ccccc2)coc2ccccc12 in terms of pKi is 7.74

###

# Species on record: Homo sapiens
# test_description: Selectivity index, ratio of IC50 for recombinant human MAO-A to IC50 for recombinant human MAO-B
Listed next: entries and their corresponding Selectivity Index.
Enter the number alone.

Lab note: COc1ccc(/C=C/c2coc3ccc(OC)cc3c2=O)cc1 gave Selectivity Index of 233

Next:
The reported value for O=c1c(/C=C/c2ccc(F)cc2)coc2ccccc12 in terms of Selectivity Index is 72

###

Listed compounds paired with reported Selectivity Index
# Organism: Homo sapiens
# test_description: Selectivity index, ratio of IC50 for recombinant human MAO-A to IC50 for recombinant human MAO-B
Please reply with the number alone, leaving off any unit.

Record excerpt, results attached:
Briefly, Selectivity Index measured for COc1ccc(/C=C/c2coc3cc(OC)ccc3c2=O)cc1 : 10

Lab note: O=c1c(/C=C/c2ccc(Cl)cc2)coc2ccccc12 gave Selectivity Index of 66

Value of Selectivity Index reported for the compound COc1ccc2c(=O)c(/C=C/c3ccc(Cl)cc3)coc2c1 is 11

For reference, reported Selectivity Index for O=c1c(/C=C/c2ccc(O)cc2)coc2ccccc12 stands at 70

Query COc1ccc2occ(/C=C/c3ccc(N(C)C)cc3)c(=O)c2c1 yields Selectivity Index of 257

More entries:
Per the record, COc1ccc2c(=O)c(/C=C/c3cc(OC)c(OC)c(OC)c3)coc2c1 has Selectivity Index of 348

Form: compound = COc1ccc(/C=C/c2coc3ccccc3c2=O)cc1OC ; Selectivity Index = 206

# Selectivity Index of COc1ccc2occ(/C=C/c3ccc(F)cc3)c(=O)c2c1 = 11

The reported value for COc1ccc2occ(/C=C/c3ccccc3)c(=O)c2c1 in terms of Selectivity Index is 33

###

# Species on record: Homo sapiens
# test_description: Selectivity index, ratio of IC50 for recombinant human MAO-A to IC50 for recombinant human MAO-B
experimental_endpoint: Selectivity Index

Worked cases, answers included:
Value of Selectivity Index reported for the molecule O=c1c(/C=C/c2ccccc2)coc2ccccc12 is > 3700

Lookup result for COc1ccc(/C=C/c2coc3ccccc3c2=O)cc1 ; measured Selectivity Index: > 3400

Further cases:
Measured Selectivity Index of COc1ccc2occ(/C=C/c3cc(OC)c(OC)c(OC)c3)c(=O)c2c1 : > 40
